Where do these numbers come from? They come from the supplement of paper PMC6555819.

Quick reference for PBM binding z-score among some sequences
system: PXR homodimer (NR concentration 270 nM); assay: PBM binding z-score (relative to random genomic background probes); higher = stronger binding; sequences stand for … in GC…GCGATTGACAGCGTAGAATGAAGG
recorded-metric: PBM binding z-score

sequence_record=CGTCCAAGGTCAATGCTAGGTAAGTGAAAGCATT result_number=0.34
sequence_record=ATATGTAGCTTAGCTGGGGTCATTCAGACTAGGC result_number=1.48
sequence_record=GATACAGGATCAGCTAGAGGCCAGAGTATGGAAA result_number=-0.577
sequence_record=CGGACTGGGGCAAGGTTACCATAACGCACAGCCA result_number=-0.28
sequence_record=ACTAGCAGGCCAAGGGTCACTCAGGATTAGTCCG result_number=-0.196
sequence_record=CCTTACGGGTCACTGACAGGGTATAGCATTTGGA result_number=-0.101
sequence_record=TCTTGTAGATCAAAAGAGGTTAAGAAAGTGCGCT result_number=0.102
sequence_record=ACTATTAGTTGAGACGAGGGCAACCTATAGGTTG result_number=0.585
sequence_record=GCTGCTAGGTCAGGTTGTTCAGCTAACGGGTACG result_number=-0.306
sequence_record=ATCTCTAAGTAAAGTTCAGTGAAAGATCGATAGA result_number=1.8
sequence_record=AAAACAGGGTCACTAGGCCAGAGTAGGTACGAAT result_number=0.329

====

test system: PPARa:RXRa (NR concentration 270 nM, RXRa partner concentration 90 nM); test: PBM binding z-score (relative to random genomic background probes); higher = stronger binding; sequences stand for … in GC…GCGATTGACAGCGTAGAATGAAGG
recorded-metric: PBM binding z-score

sequence_record=CGTCCAAGGTCAGAGAGGACAGTGAATGCCGAGT recorded_metric="PBM binding z-score" result=3.85
sequence_record=ACAGACAGGTGATGTAGGTAACTCAGGCTATCAT recorded_metric="PBM binding z-score" result=0.633
sequence_record=CCTACTGGGCCAAAAGTCATTGATTCCAATGCTC recorded_metric="PBM binding z-score" result=3.54
sequence_record=GGAACGAGGGCAAAGTTGAAAGCATCTGTCGACG recorded_metric="PBM binding z-score" result=4.91
sequence_record=ATATGTAGGTTAAGGGTCATTCAGGTTGGTTCGC recorded_metric="PBM binding z-score" result=6.68
sequence_record=CCAGACAGGTGAGAAGGTAACACAGCCTCGATTA recorded_metric="PBM binding z-score" result=1.1
sequence_record=CAAACAAGGTCAAGGTCAAAGTCGGTTTGTGCCA recorded_metric="PBM binding z-score" result=6.38
sequence_record=CTACCAAGGTGAACAAGCTCGTTGATTACTATTC recorded_metric="PBM binding z-score" result=0.984
sequence_record=AATACAGGGTCAACGTAGGCCAGAGTACGCACAG recorded_metric="PBM binding z-score" result=5.88
sequence_record=ACAGACAGGTGAGTGAACGTAACTCAGCTGGACG recorded_metric="PBM binding z-score" result=-0.0939
sequence_record=TGAATGAGGTTAAAGCTCAGGGAACGTGGCGTCG recorded_metric="PBM binding z-score" result=3.6
sequence_record=CCGACTGGGGCAAGGTTAACATAACGCACAGCCA recorded_metric="PBM binding z-score" result=2.59
sequence_record=GCGACTGGGGCAATGCAGGTTACCATAAGGTTGG recorded_metric="PBM binding z-score" result=1.78
sequence_record=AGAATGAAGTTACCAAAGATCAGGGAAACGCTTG recorded_metric="PBM binding z-score" result=-0.153
sequence_record=AGAATGAGGTTATTAAAATCAGGGAATTGCGGTC recorded_metric="PBM binding z-score" result=2.3

====

system: FXR:RXRa (NR concentration 270 nM, RXRa partner concentration 90 nM); assay: PBM binding z-score (relative to random genomic background probes); higher = stronger binding; sequences stand for … in GC…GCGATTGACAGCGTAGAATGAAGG
# cutoff 1 applies to PBM binding z-score; >= gives satisfied, < gives not satisfied

sequence_record=CATACAGGGTCAGCTAGGCCTGAGTAGGGACGGC label=satisfied
sequence_record=GCTAGCAGGCCAGTTGGGTCACTCAATGACGGGC label="not satisfied"
sequence_record=ATCGAAAGGTCGACGAGGTGAGTACACACCGTTT label=satisfied
sequence_record=CCTACTGGGCCACGAAAGGTCATTCATTCAGTGA label=satisfied
sequence_record=TCTTGTAGATCAAGCAGGTAAAGAAAGCCTGAGT label="not satisfied"
sequence_record=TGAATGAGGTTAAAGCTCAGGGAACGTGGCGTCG label=satisfied
sequence_record=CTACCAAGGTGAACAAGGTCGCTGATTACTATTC label=satisfied
sequence_record=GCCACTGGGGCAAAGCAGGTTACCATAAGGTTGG label="not satisfied"
sequence_record=TCTCGGAGCACACGAAGGTCAGAGCTTTCCAGAG label="not satisfied"
sequence_record=AGCATGAGGTTACCAAAGATCAGGGAAACGCTTG label=satisfied
sequence_record=CCTCGGAGGAGAACAGGAGGTCAGAGCTGCCAGA label=satisfied
sequence_record=GCTTACGGGTTAAAGGTTATAGCATGAATAGAAT label=satisfied
sequence_record=ATCTCGAGGTAAAGATAGTTCAGTGAATGCAAAT label="not satisfied"
sequence_record=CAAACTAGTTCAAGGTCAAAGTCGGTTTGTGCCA label=satisfied
sequence_record=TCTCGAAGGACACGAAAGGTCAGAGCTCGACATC label=satisfied

====

system: PPARg:RXRa 270nM:90nM, anti-RXR (NR concentration 270 nM, RXRa partner concentration 90 nM); test: PBM binding z-score (relative to random genomic background probes); higher = stronger binding; sequences stand for … in GC…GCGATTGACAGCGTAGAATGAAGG
recorded-metric: PBM binding z-score

sequence_record=TAGCATAGGTCATTGGGCCAGTATAGTACGCATC result=5.29
sequence_record=GCATGTAGGTAATACAAGGTGAAAGTCCGATTGT result=1.52
sequence_record=CCGAGTAGGTTATGGGGCAGTCAGGCAACGGTGA result=3.74
sequence_record=TAGCCTATGTCATGCGGGCCAGTATAGTGTCGGC result=-0.476
sequence_record=GCATATACGTAATACAAGGTGAAAGTCCGATTGT result=0.499
sequence_record=TAGCCTATGTCAGATCGGGCCAGTATACGCTATA result=-0.557
sequence_record=ATACCAAGGTGATCGTGAGGTCGTTGAGACTAAC result=0.352
sequence_record=TCTTGTAGATCAAGCAGGTTTAGAAAGCCTGAGT result=0.91
sequence_record=AATACAGGGCCACTAGGCCAGAGTAGGTACGAAT result=0.532
sequence_record=CCGACTGGGGGAAGGTTACCATAACGCACAGCCA result=2.33
sequence_record=TAGCCTAGGTCAGATCGTGCCAGTATACGCTATA result=0.67
sequence_record=TAGCCTAGATCATGCGGGCCAGTATAGTGTCGGC result=-0.522
sequence_record=CCGACTGGGGCAGAAAGGTTACCATCCCATCCGG result=2.53
sequence_record=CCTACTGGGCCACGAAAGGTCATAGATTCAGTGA result=4.98
sequence_record=GCTTACGGGTCAAAGGTTGTAGCATGAATAGAAT result=8.57
sequence_record=CCCACTGGGCCACGAAAGGTCATTGATTCAGTGA result=4.99
sequence_record=TGATTGAGGTTATAAGATCAGGGAACGTTGCAAA result=1.78
sequence_record=CCAGACAGGTGAGAAGGGAACTCAGCCTCGATTA result=0.174
sequence_record=ATCGAAAGGTCGAGGGTGAGTATACCCACCCGAA result=4.25
sequence_record=TAGCCTAGGTAATGCGGGCCAGTATAGTGTCGGC result=-0.669
sequence_record=CGTCCAAGGTCAAAGTTCAGTGAAGAGATGACGG result=8.05
sequence_record=ATCTCTAGGTAAAAGTTCAGTGAATCCCGAGGAT result=7.52
sequence_record=CGTCCAAGGTCAATGCTAGGTCTGTGAAAGCATT result=3.99
sequence_record=CCGACTGGGGCAAGGTTACCACAACGCACAGCCA result=3.54
sequence_record=AGAATTAGGTTATACGTAGATCAGGGAAGAAAGT result=2.95

====

Parameter: PBM binding z-score. Scope: all listed entries.
tested on: RARb:RXRa (NR concentration 270 nM, RXRa partner concentration 90 nM); assay: PBM binding z-score (relative to random genomic background probes); higher = stronger binding; sequences stand for … in GC…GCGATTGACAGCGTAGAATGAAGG
recorded-metric: PBM binding z-score

sequence_record=CGTACTAGGTCAGAACAGGACAGTGAAGGATGAT result=3.05
sequence_record=GATACAGGGTCAGGTAGAGGCCAGAGTATGGAAA result=4
sequence_record=TGTCAAAGTTCATAGGTAACGTAAGTATCCACAC result=4.9
